Tested on: Hs-578T
assay details: NCI tumour cell line growth inhibition, 48 h
Active and inactive are the calls of the source. Rule as the data show it: active = GI50 up to about 1.1 µM and inactive = higher.
observable: GI50

COc1ccc2c(c1)CC[C@@H]1[C@@H]2CC[C@]2(C)[C@@H](O)/C(=C/c3ccncc3)C[C@@H]12 | 12.8 µM (inactive)
CCCCCCCCCCCCNC(=O)CCC(NC(=O)c1ccc(N(C)Cc2cnc3nc(N)nc(N)c3n2)cc1)C(=O)NCCCCCCCCCCCC (stereo not given) | 27.2 µM (inactive)
COCCN(C(C)=O)C1CCC2(SCCS2)c2[nH]c3ccccc3c21 (stereo not given) | > 100 µM (inactive)
Cc1ccc(SC(=O)N2C(=S)N=C(NC3CCCCC3)C23CCCCC3)cc1 | 62.2 µM (inactive)

Return reported GI50. Input molecule: COc1cc(-c2c3c([nH]c(=O)c2C#N)-c2cc([N+](=O)[O-])ccc2CCC3)cc(OC)c1OC
13.3 µM (inactive)

Where do the numbers come from? From ChEMBL document CHEMBL1201862.
